These entries and their values trace back to the supplement of paper PMC11246515.

experiment: total protein half-life in vivo (active degradation + dilution); higher = more stable protein; conditions: wild type E. coli NCM3722; growth: P-lim chemostat; doubling time 12 h
Label Not satisfied if total protein half-life in vivo falls below 10 h; label Satisfied in every other case.

MPLPDFRLIRLLPLAALVLTACSVTTPKGPGKSPDSPQWRQHQQDVRNLNQYQTRGAFAYISDQQKVYARFFWQQTGQDRYRLLLTNPLGSTELELNAQPGNVQLVDNKGQRYTADDAEEMIGKLTGMPIPLNSLRQWILGLPGDATDYKLDDQYRLSEITYSQNGKNWKVVYGGYDTKTQPAMPANMELTDGGQRIKLKMDNWIVK
Satisfied

Answer whether total protein half-life in vivo of MKRQKRDRLERAHQRGYQAGIAGRSKEMCPYQTLNQRSQWLGGWREAMADRVVMA [P0AFW2] is greater than or equal to 10 h. Not satisfied

Answer whether total protein half-life in vivo of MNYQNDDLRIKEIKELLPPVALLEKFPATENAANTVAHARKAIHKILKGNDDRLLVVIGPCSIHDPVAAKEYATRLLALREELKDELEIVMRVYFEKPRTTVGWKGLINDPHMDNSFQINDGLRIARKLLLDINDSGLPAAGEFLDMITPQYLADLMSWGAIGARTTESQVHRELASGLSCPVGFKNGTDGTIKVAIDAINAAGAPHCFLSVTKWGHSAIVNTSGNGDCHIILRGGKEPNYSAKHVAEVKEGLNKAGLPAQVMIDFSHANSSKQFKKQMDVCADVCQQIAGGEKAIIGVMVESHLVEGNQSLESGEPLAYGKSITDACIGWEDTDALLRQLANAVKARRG [P0AB91] is greater than or equal to 10 h. Satisfied

Answer whether total protein half-life in vivo of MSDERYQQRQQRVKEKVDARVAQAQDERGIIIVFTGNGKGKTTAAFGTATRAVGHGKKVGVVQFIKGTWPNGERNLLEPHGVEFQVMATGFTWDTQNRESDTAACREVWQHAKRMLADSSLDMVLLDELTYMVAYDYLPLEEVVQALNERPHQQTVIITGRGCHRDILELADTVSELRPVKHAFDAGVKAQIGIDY [P0A9H5] is greater than or equal to 10 h. Satisfied

Answer whether total protein half-life in vivo of MRTTSFAKVAALCGLLALSGCASKITQPDKYSGFLNNYSDLKETTSATGKPVLRWVDPSFDQSKYDSIVWNPITYYPVPKPSTQVGQKVLDKILNYTNTEMKEAIAQRKPLVTTAGPRSLIFRGAITGVDTSKEGLQFYEVVPVALVVAGTQMATGHRTMDTRLYFEGELIDAATNKPVIKVVRQGEGKDLNNESTPMAFENIKQVIDDMATDATMFDVNKK is greater than or equal to 10 h. Satisfied
